System: Mythimna separata
Assay Info: Insecticidal activity against pre-third-instar larvae of Mythimna separata (Oriental armyworm) in wheat leaves at 1 mg/mL after 20 days by leaf-dipping method
Format: functional
Applied Conditions: 480 h
Measurement Kind: mortality at 1000 µg/mL (%)
The response must be a number in % with no trailing unit.

For orientation, consider the following solved cases.
COc1ccc(S(=O)(=O)O/N=C2/c3cc4c(cc3[C@@H](c3cc(OC)c(OC)c(OC)c3)[C@@H]3C(=O)OC[C@H]23)OCO4)cc1 = 3.5
COc1cc([C@@H]2c3cc4c(cc3/C(=N/OS(=O)(=O)c3ccc(C)cc3)[C@H]3COC(=O)[C@@H]23)OCO4)cc(OC)c1OC = 34.5
COc1cc([C@@H]2c3cc4c(cc3C3=NOC[C@H]3[C@@H]2C(=O)O)OCO4)cc(OC)c1OC = 31

Consider the molecule `COc1ccc(C(=O)OC[C@@H]2[C@H](c3cc(OC)c(OC)c(OC)c3)c3cc4c(cc3C3=NOC[C@H]32)OCO4)cc1` and give its recorded mortality at 1000 µg/mL.
13.8

For the molecule `COc1cc([C@@H]2c3cc4c(cc3C3=NOC[C@H]3[C@@H]2C(=O)OCc2ccccc2)OCO4)cc(OC)c1OC` , give its measured mortality at 1000 µg/mL value.
31

Give mortality at 1000 µg/mL for `CC(=O)O[C@@H]1C[C@H](O)[C@@]23CO[C@@H](O)[C@]1(C)[C@@H]2C[C@@H](O)[C@]1(C)[C@@H]3C(=O)[C@H](OC(C)=O)[C@@]2(C)[C@H](c3ccoc3)C[C@H]3O[C@]321`
13.8

Assign mortality at 1000 µg/mL to the following record: `COc1cc([C@@H]2c3cc4c(cc3C3=NOC[C@H]3[C@@H]2COC=O)OCO4)cc(OC)c1OC`
10.3

====

The entries below are paired with their reported mortality at 1000 µg/mL.
Tested on: Mythimna separata
Assay Info: Insecticidal activity against pre-third-instar larvae of Mythimna separata (Oriental armyworm) in wheat leaves at 1 mg/mL after 33 days by leaf-dipping method
Type: functional
Applied Conditions: 792 h
Report only the number, with the unit % understood.

CCCCNC(=O)[C@@H]1[C@H](c2cc(OC)c(OC)c(OC)c2)c2cc3c(cc2C2=NOC[C@H]21)OCO3 = 10.3

Item `COc1cc([C@@H]2c3cc4c(cc3C(=O)[C@H]3COC(=O)[C@H]23)OCO4)cc(OC)c1OC` : provide mortality at 1000 µg/mL
17.2

Identify measured mortality at 1000 µg/mL associated with `COc1cc([C@@H]2c3cc4c(cc3C3=NOC[C@H]3[C@@H]2C(=O)O)OCO4)cc(OC)c1OC`
41.4

====

Listing of entries alongside the reported mortality at 1000 µg/mL.
Tested on: Mythimna separata
Assay Info: Insecticidal activity against pre-third-instar larvae of Mythimna separata (Oriental armyworm) in wheat leaves at 1 mg/mL after 33 days by leaf-dipping method
Assay type: functional
Applied Conditions: 792 h
Report the value in % with no unit label.

COc1cc([C@@H]2c3cc4c(cc3C3=NOC[C@H]3[C@@H]2COC(=O)Cc2ccccc2)OCO4)cc(OC)c1OC = 20.7
COc1cc([C@@H]2c3cc4c(cc3C3=NOC[C@H]3[C@@H]2CO)OCO4)cc(OC)c1OC = 37.9
COc1ccc(S(=O)(=O)O/N=C2/c3cc4c(cc3[C@@H](c3cc(OC)c(OC)c(OC)c3)[C@@H]3C(=O)OC[C@H]23)OCO4)cc1 = 24.1

Identify the reported mortality at 1000 µg/mL for the following entry. `CCOC(=O)[C@@H]1[C@H](c2cc(OC)c(OC)c(OC)c2)c2cc3c(cc2C2=NOC[C@H]21)OCO3`
44.8

Given `COc1cc([C@@H]2c3cc4c(cc3/C(=N/OS(=O)(=O)c3ccc(C)cc3)[C@H]3COC(=O)[C@@H]23)OCO4)cc(OC)c1OC` , respond with its mortality at 1000 µg/mL.
44.8

====

Test system: Mythimna separata
Assay Info: Insecticidal activity against pre-third-instar larvae of Mythimna separata (Oriental armyworm) in wheat leaves at 1 mg/mL after 33 days by leaf-dipping method
Format: functional
Applied Conditions: 792 h
Measurement Kind: mortality at 1000 µg/mL
Reply with a number, then the unit it belongs to.

Record excerpt, results attached:
COc1cc([C@@H]2c3cc4c(cc3C3=NOC[C@H]3[C@@H]2COC(=O)c2ccccc2)OCO4)cc(OC)c1OC = 41.4%
COc1cc([C@@H]2c3cc4c(cc3/C(=N/OS(=O)(=O)c3ccc(Cl)cc3)[C@H]3COC(=O)[C@@H]23)OCO4)cc(OC)c1OC = 55.2%
COC(=O)[C@@H]1[C@H](c2cc(OC)c(OC)c(OC)c2)c2cc3c(cc2C2=NOC[C@H]21)OCO3 = 41.4%
COc1cc([C@@H]2c3cc4c(cc3C(=O)[C@H]3COC(=O)[C@@H]23)OCO4)cc(OC)c1OC = 27.6%
CCCCCCCCOC(=O)[C@@H]1[C@H](c2cc(OC)c(OC)c(OC)c2)c2cc3c(cc2C2=NOC[C@H]21)OCO3 = 37.9%

# assay system Mythimna separata: give mortality at 1000 µg/mL of `COc1cc([C@@H]2c3cc4c(cc3[C@H](O)[C@H]3COC(=O)[C@H]23)OCO4)cc(OC)c1OC`
37.9%

Provide mortality at 1000 µg/mL, recorded with Mythimna separata, of `CCCC(=O)OC[C@@H]1[C@H](c2cc(OC)c(OC)c(OC)c2)c2cc3c(cc2C2=NOC[C@H]21)OCO3`
34.5%
